Values compiled from patent US12281126B2.

The next entries give measured IC50 for CDK7 (Homo sapiens (Human), UniProt P50613).
recordedEndpoint: IC50 (nM)

1) C=CC(=O)Nc1ccc(Nc2n[nH]c3c2CN(C(=O)N[C@H](CN(C)C)C2CCOCC2)C3(C)C)cc1 [Compound 209]: 3310
2) C=CC(=O)Nc1ccc(Nc2n[nH]c3c2CN(C(=O)N[C@H](CN(C)C)C2CCOCC2)C3(C)C)nc1 [Compound 204]: 407
3) C=CC(=O)Nc1ccc(C(=O)Nc2n[nH]c3c2CN(C(=O)N[C@H]2CCCN(C)C2)C3(C)C)cc1 [Compound 210]: 48.4
4) CN(C)C[C@@H](NC(=O)N1Cc2c(Nc3ccnc(C(F)(F)F)n3)n[nH]c2C1(C)C)C1CCOCC1 [Compound 208]: 10.8
